- Tested on: SK-MEL-28 melanoma
- assay-overview: NCI tumour cell line growth inhibition, 48 h
quantity-kind: TGI

Below are worked cases with known answers.
O=C(Cl)C1=C(c2ccccc2)C1c1ccccc1 (stereo not given) = > 100 µM
COC(=O)C1C(=O)N(CCc2c[nH]c3ccccc23)C[C@@H]2CCC(=O)C[C@H]12 (stereo not given in full) = > 100 µM
CCOC(=O)C(NC(=O)Nc1ccc(Cl)cc1)(OC)C(F)(F)F (stereo not given) = > 100 µM
COc1cc(C2c3cc4c(cc3[C@@H](Nc3ccc5c(c3)OCO5)C3COC(=O)[C@H]23)OCO4)cc(OC)c1O (stereo not given in full) = > 95.3 µM

// next entry
Query: Tell me the measured TGI of "C[C@H]1OC(=O)[C@@H]2N=NN(Cc3ccccc3)[C@H]12" , please.
Response: > 100 µM

---

- Tested on: EKVX NSCLC
- assay-overview: NCI tumour cell line growth inhibition, 48 h
quantity-kind: GI50

Below are worked cases with known answers.
COc1ccc(-n2nc(C)c3c(Nc4ccc(NC(=O)Nc5ccc(Cl)c(C(F)(F)F)c5)cc4)ncnc32)cc1 = 2.19 µM
COc1cc2nc(-c3ccc(C(F)(F)F)cc3)cc(OCCCN3CCCC3)c2cc1OC = 0.848 µM
CC1c2ccccc2N=C2SC(=S)N3CCN=C3N21 (centres undefined) = 4.33 µM

Query: Tell me the measured GI50 of "Cc1cc2c(cc1Cl)S/C(=C/C(=O)O)C(Nc1cccc3nsnc13)=NS2(=O)=O" , please.
Response: > 10.5 µM

---

- System: NCI-H522 lung
- assay-overview: NCI tumour cell line growth inhibition, 48 h
Think of 20 µM as a floor: if TGI stands on it or above, it is 1; beneath it, -1.

Solved entries (count: 10):
CN(C)CCCNC(=O)c1c(O)c2ccccc2n(C)c1=O = 1
CN1c2ccccc2SC2C(c3ccccc3)=NOC21 (stereo unspecified) = 1
CC1=NNC(=O)C1C1CC(c2c[nH]c3ccccc23)=NN=C1Cl (stereo unspecified) = 1
Cc1ccc2oc(=O)c(-c3ccccc3)nc2c1 = 1
CCCCCCCCCCCCCC[n+]1cccc(C(N)=O)c1 = -1
O=C(c1cccs1)C1NO[N+]([O-])=C1c1cccs1 (stereo unspecified) = -1
Cc1cccc(N(CC(=O)O)S(=O)(=O)c2ccccc2)c1 = 1
O=C(OCC1OC(n2nc(Cn3nnc(-c4cccnc4)n3)n(-c3cccc4ccccc34)c2=S)C(OC(=O)c2ccccc2)C1OC(=O)c1ccccc1)c1ccccc1 (stereo unspecified) = 1
Cc1c2ccncc2c(C)c2c1[nH]c1ccc(O)c(OCC(F)(F)F)c12 = -1
C/C(=C\CO)CC/C=C(\C)CNc1ccc([N+](=O)[O-])cc1 = 1

Query: Given the entry "C[n+]1c(/C=C/c2ccc(O)c3ncccc23)[se]c2ccccc21" , answer whether its TGI meets or surpasses 20 µM.
Response: 1

---

- Tested on: CAKI-1 renal
- assay-overview: NCI tumour cell line growth inhibition, 48 h
TGI values by entry
Give your result in µM as a bare value.

Clc1ccc(/C(=C\c2ccccc2)Cn2ccnc2)cc1 = 30.1

// next entry
Query: State its TGI on CAKI-1 renal: "CCCCCCCCCCCCCC[n+]1cccc(C(N)=O)c1"
Response: 6.52
